# systemName: soluble αVβ6 headpiece (human, UniProt P06756 31-624, M400C)
# assaySummary: fluorescence polarisation
measuredQuantity: pKd
By convention, pKd is the negative base-10 log of a molar concentration.

# input Would you kindly share the measured pKd for YTSGDQKTI [homologous peptide from pro-TGF-β2 (SGD in place of RGD)] ?
# output 5.07
